Entries with their measured AC50, system Sodium-dependent dopamine transporter (Homo sapiens):

CN(CCOc1ccc(CC2SC(=O)NC2=O)cc1)c1ccccn1 (centres undefined)	> 30 µM

For each of the molecules below, state AC50.
1. CC(=O)[C@H]1CC[C@H]2[C@@H]3C[C@H](C)C4=CC(=O)CC[C@]4(C)[C@H]3[C@@H](O)C[C@]12C
2. CCCNC(=O)NS(=O)(=O)c1ccc(Cl)cc1 [CHLORPROPAMIDE]
3. CCOc1cc([C@@H](CS(C)(=O)=O)N2C(=O)c3cccc(NC(C)=O)c3C2=O)ccc1OC

Ans:
["> 10 µM", "> 30 µM", "> 30 µM"]
